# test protocol: MTT cytotoxicity assay on A549 cells
# Assay type: cell-based
# condition parameters: human, A549 cells (non-small cell lung carcinoma cell line); A549, 25 µM, 24 h, MTT; read-out: cell viability rate
Form field: viability at 24 h, 25 µM (one value per entry).
property label: viability at 24 h, 25 µM (%)

[[record]]
mol = "COc1cc(/C=N\\NC(N)=S)ccc1OCC(=O)Nc1cccc(C)c1"
property_label = "viability at 24 h, 25 µM"
experimental_result = 84.3

[[record]]
mol = "COc1cc(/C=N\\NC(N)=S)ccc1OCC(=O)Nc1ccccc1Cl"
property_label = "viability at 24 h, 25 µM"
experimental_result = 72.4


###

# test protocol: MTT cytotoxicity assay on MDA-MB-453 cells
# Type: cell-based, human
# condition parameters: human, MDA-MB-453 cells (breast cancer cell line); MDA-MB-453, 25 µM, 24 h, MTT; read-out: cell survival rate / cell viability
property label: viability at 24 h, 25 µM (%)

[[record]]
compound = "COc1cc(/C=N\\NC(N)=S)ccc1OCC(=O)Nc1ccccc1Cl [7 g]"
readout_units = "%"
experimental_result = 66.7

[[record]]
compound = "COc1cc(/C=N\\NC(N)=S)ccc1OCC(=O)Nc1cccc(C)c1 [Compound 7e]"
readout_units = "%"
experimental_result = 74.7


###

# system under test: α-glucosidase (Saccharomyces cerevisiae, UniProt P53341)
pKi: −log10 of the molar value.
property label: pKi

[[record]]
compound = "COc1cc(/C=N\\NC(N)=S)ccc1OCC(=O)Nc1cccc(C)c1 [Compound 7e]"
experimental_result = 4.46


###

Reported IC50 values for a set of compounds
# system under test: α-glucosidase (from Saccharomyces cerevisiae EC 3.2.1.20) (Saccharomyces cerevisiae, UniProt P53341)
# Construct: purchased Sigma
# Sequence (P53341 whole entry): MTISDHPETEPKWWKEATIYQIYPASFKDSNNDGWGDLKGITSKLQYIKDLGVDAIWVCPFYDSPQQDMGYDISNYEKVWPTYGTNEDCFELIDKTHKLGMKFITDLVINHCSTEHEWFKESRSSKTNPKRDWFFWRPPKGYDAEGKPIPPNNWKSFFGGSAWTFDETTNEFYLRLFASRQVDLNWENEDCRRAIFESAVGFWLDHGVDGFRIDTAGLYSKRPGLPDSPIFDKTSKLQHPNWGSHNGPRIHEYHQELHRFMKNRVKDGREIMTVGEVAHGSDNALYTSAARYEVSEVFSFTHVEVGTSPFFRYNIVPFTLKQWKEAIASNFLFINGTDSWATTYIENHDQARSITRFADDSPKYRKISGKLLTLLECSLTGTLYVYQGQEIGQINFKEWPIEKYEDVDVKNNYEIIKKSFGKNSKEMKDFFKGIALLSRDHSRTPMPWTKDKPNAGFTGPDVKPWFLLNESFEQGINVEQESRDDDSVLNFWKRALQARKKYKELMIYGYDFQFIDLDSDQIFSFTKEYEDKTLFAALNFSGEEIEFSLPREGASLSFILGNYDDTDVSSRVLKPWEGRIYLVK
# test protocol: biochemical
# condition parameters: pNPG substrate, pH 6.8, 37 °C, mean ± SD, n = 3; read-out: IC50 (µM) ± SD, α-glucosidase inhibitory activity
# Method: The method described by Azizian et al. with some modifications was used to assess αglucosidase inhibitory activity of novel derivatives of phenyl carbamoyl methoxy thiosemicarbazone. The enzyme solution was prepared of αglucosidase (1 U/mL) in a […] phosphate buffer (pH: 6.8). […] Finally, absorbance was measured at 405 nm using a spectrophotometer (BioTek ELx808, USA). […] The IC50 values for the tested inhibitors were calculated using Microsoft Excel 2016 software and non-linear regression analysis.
property label: IC50 (µM)

[[record]]
compound = "COc1cc(/C=N\\NC(N)=S)ccc1OCC(=O)Nc1ccc(C)cc1 [Compound 7b]"
experimental_result = 151

[[record]]
compound = "COc1ccc(NC(=O)COc2ccc(/C=N\\NC(N)=S)cc2OC)cc1 [Compound 7m]"
experimental_result = 436

[[record]]
compound = "CCc1ccc(NC(=O)COc2ccc(/C=N\\NC(N)=S)cc2OC)cc1 [Compound 7c]"
experimental_result = 96

[[record]]
compound = "COc1cc(/C=N\\NC(N)=S)ccc1OCC(=O)Nc1ccc(Br)cc1 [Compound 7h]"
experimental_result = 574


###

# system under test: α-glucosidase (from Saccharomyces cerevisiae EC 3.2.1.20) (Saccharomyces cerevisiae, UniProt P53341)
# Construct: purchased Sigma
# test protocol: biochemical
pIC50: −log10 of the molar value.
property label: pIC50

[[record]]
mol = "COc1cc(/C=N\\NC(N)=S)ccc1OCC(=O)Nc1ccccc1F"
experimental_result = 4.02

[[record]]
mol = "COc1cc(/C=N\\NC(N)=S)ccc1OCC(=O)Nc1cccc(C)c1C"
experimental_result = 3.98

[[record]]
mol = "COc1cc(/C=N\\NC(N)=S)ccc1OCC(=O)Nc1ccc(C)cc1C"
experimental_result = 3.91

